Test system: HCT-116
Experiment: NCI tumour cell line growth inhibition, 48 h
Activity calls are given as the source filed them. No stated cut-off is given here; in the data, active = GI50 up to about 1.1 µM and inactive = higher.
# output must be one of active, inactive

Consider the following illustrative entries.
Cc1n[nH]c(=O)n1N=C(c1ccccc1)c1ccccc1; inactive
O=C1CC(C(COCc2ccccc2)OCc2ccccc2)CC(=O)N1 (stereo unspecified); inactive
N/N=c1\c2ccccc2c2ccc3c4ccccc4/c(=N\N)c3c12; inactive

Task: Which result was noted for this compound in the test: CN(C)CC1CN=C(N)O1 (stereo unspecified)
Result: inactive

Task: Hi team, can someone confirm the assay call for COC(=O)/C(=N\NC(=O)c1ccccc1O)C(C#N)c1ccccc1 (stereo unspecified) ?
Result: inactive

Task: State the result this test recorded for CC(C)CCCC(C)[C@H]1CC[C@H]2[C@@H]3CC[C@H]4C[C@@H](CCC=C(c5cc(Cl)c(O)c(C(=O)O)c5)c5cc(Cl)c(O)c(C(=O)O)c5)CC[C@]4(C)[C@H]3CC[C@]12C (stereo partly specified) .
Result: inactive

Task: Answer briefly: the call reported for C/C=C/[C@H]1O[C@@](OC)([C@@H](C)[C@H](O)[C@H](C)[C@H]2OC(=O)/C(OC)=C/C(C)=C/[C@@H](C)[C@@H](O)[C@@H](C)[C@@H](O)[C@H](C)C/C(C)=C/C=C/[C@@H]2OC)CC(OC2CC(O)C(OC(N)=O)C(C)O2)[C@@H]1C (stereo partly specified) in this assay.
Result: active

Task: What call does the record list for Cc1ccc(N2C(=O)N(c3ccc(C)cc3)C3(SC=NN3C)C2=O)cc1 (stereo unspecified) ?
Result: inactive

Task: Status in this test for O=S(=O)(O)c1ccc2c(/N=N/c3ccccc3Cl)c(O)ccc2c1 ?
Result: inactive

Task: Please indicate how the test categorized COc1ccc(/C=C/c2cc(OC)c(OC)c(OC)c2)cc1 .
Result: inactive

###

Tested on: COLO 205
Assay: NCI tumour cell line growth inhibition, 48 h
Calls of active or inactive are those of the source. Rule as the data show it: active = GI50 up to about 1.1 µM and inactive = higher.
recorded.metric: GI50

Parameter requested: GI50. Apply to each item below.
1. CCOc1ccc(C(c2c(O)c3ccccc3oc2=O)c2c(O)c3ccccc3oc2=O)cc1
2. CC(=O)Nc1ccc(C(=O)N2N=C(C)/C(=C/c3cccc(O)c3)C2=O)cc1

Result:
> 100 µM (inactive)
> 100 µM (inactive)

Hey, quick one: what's GI50 for each of these?
1. CC(C)CCCC(C)[C@H]1CC[C@H]2[C@@H]3CC[C@H]4C[C@@H](CCC=C(c5cc(Cl)c(O)c(C(=O)O)c5)c5cc(Cl)c(O)c(C(=O)O)c5)CC[C@]4(C)[C@H]3CC[C@]12C (stereo partly drawn)
2. COc1ccc(C#CCC(OC2OC(CO)C(O)C(O)C2O)C(O)c2ccc(OC)c(OC)c2)cc1OC (stereo not drawn)
3. c1ccc(C2=C(c3ccccc3)Sc3nnc(CCCCCCCCc4nnc5n4NC(c4ccccc4)=C(c4ccccc4)S5)n3N2)cc1
4. CCOP(=O)(OCC)C(c1ccccc1)N(C(=O)NC(F)(F)F)c1cccc(F)c1 (stereo not drawn)

Result:
1: > 50 µM (inactive); 2: > 100 µM (inactive); 3: 45.3 µM (inactive); 4: > 100 µM (inactive)

Each of the following entries comes with a recorded value; kindly state GI50 for each.
1. CC1=C(C(=O)NCc2ccccc2)C(c2ccccc2O)C(C(=O)NCc2ccccc2)=C(C)N1
2. CCOC(=O)C1(N)CCc2[nH][nH]c(=O)c2C1 (stereo not drawn)

Result:
1. 16.9 µM (inactive)
2. > 100 µM (inactive)

###

Tested on: KM12
Assay: NCI tumour cell line growth inhibition, 48 h
The source made the active and inactive calls. No stated cut-off is given here; in the data, active = GI50 up to about 1.1 µM and inactive = higher.
recorded.metric: GI50

Worked examples, 5 compounds total:
CO/C(=N\N=C\c1ccc(Cl)cc1)c1ccncc1; > 100 µM (inactive)
C/C=C/[C@H]1O[C@@](OC)([C@@H](C)[C@H](O)[C@H](C)[C@H]2OC(=O)/C(OC)=C/C(C)=C/[C@@H](C)[C@@H](O)[C@@H](C)[C@@H](O)[C@H](C)C/C(C)=C/C=C/[C@@H]2OC)CC(OC2CC(O)C(OC(N)=O)C(C)O2)[C@@H]1C (some centres not stated); < 0.01 µM (active)
c1ccc(N2CCN(CCCN3CCc4c([nH]c5ccccc45)C3c3cccnc3)CC2)cc1 (configuration not stated); 51.4 µM (inactive)
CC(Oc1ccc(Cl)cc1Cl)C(=O)NN1C(=O)CC(=O)N(c2ccccc2)C1=S (configuration not stated); 18.1 µM (inactive)
CC(=O)Nc1cc2c3c(c1)CCCN3CCC2; > 100 µM (inactive)

Fill in GI50 for each of the 6 compounds listed.
1. CC(=O)CC12NC(=O)N(C)N=C1N(C)C(=O)N(C)C2=O (configuration not stated)
2. CCCCCCCCCCCCC(=O)NCC(=O)NC(Cc1ccccc1)C(=O)Oc1ccc([N+](=O)[O-])cc1 (configuration not stated)
3. C(=C\C(SCc1ccccc1)SCc1ccccc1)/c1ccccc1
4. COc1ccc(CNC2=C(NC(C)=O)C(=O)c3ccccc3C2=O)cc1
5. C=CC/N=C1/N=C(CC(=O)OCC)CS1
6. C[P+](C)(CC(F)(F)F)c1ccccc1

Result:
1: 52.8 µM (inactive); 2: 55.6 µM (inactive); 3: > 10 µM (inactive); 4: 23 µM (inactive); 5: > 100 µM (inactive); 6: > 100 µM (inactive)

Return reported GI50 values for all items listed beneath this line.
1. O=C(/C=C/c1ccc(O)c(O)c1)OCCOC(=O)/C=C/c1ccc(O)c(O)c1
2. CC(=O)OCC1OC(NC(=S)Nn2c(=O)[nH]c3ccccc3c2=O)C(OC(C)=O)C(OC(C)=O)C1OC(C)=O (configuration not stated)
3. CC(C)(C)OC(=O)NCCC(=O)NC1(c2cc3ccccc3s2)CCCCC1
4. C=C1[C@H](OC(=O)C(C)C)[C@]23CC4(O)[C@@H]5[C@@]6(C)CCC[C@]57C([C@@H]2C[C@@]1(O)[C@H](O)[C@@H]73)N4C6
5. OC(c1ccccc1)(c1ccccc1)c1cccnc1
6. CCOC(=O)/C1=C(\C)N(c2ccc(C)cc2)C(=O)c2ccccc2C(=O)c2c(O)ccc(O)c21
7. Cc1ccc(NC(=O)C(=O)Cc2cc[n+]([O-])cc2)cc1

Result:
["17.6 µM (inactive)", "> 100 µM (inactive)", "18.7 µM (inactive)", "> 100 µM (inactive)", "> 100 µM (inactive)", "23 µM (inactive)", "> 100 µM (inactive)"]

###

Tested on: BT-549
Experiment: NCI tumour cell line growth inhibition, 48 h
Calls of active or inactive are those of the source. No stated cut-off is given here; in the data, active = GI50 up to about 1.1 µM and inactive = higher.
Provide the reported GI50 of each item.

Example compounds with recorded GI50:
O=C1Oc2ccccc2C1C/C(=N\Nc1ccccc1)c1ccccc1O (stereo unspecified); 28.6 µM (inactive)
c1ccc(-c2csc3c2-n2cccc2C3N2CCCC2)cc1 (stereo unspecified); 3.3 µM (inactive)
O=C1N[C@H]2c3c(Cl)sc(Cl)c3/C(=N/O)[C@H]2O1; > 100 µM (inactive)
Oc1cc(-c2cccc(F)c2)nc2cc3c(cc12)OCO3; 0.2 µM (active)
CN1C(=O)C2(C)SC1(c1ccccc1)C1C(=O)N(c3ccccc3)C(=O)C12 (stereo unspecified); > 100 µM (inactive)
CCOC(=O)Nc1cc2c(c(N)n1)N=C(c1ccccc1)[C@H](C)N2 [MIVOBULIN ISETHIONATE]; 0.01 µM (active)
CC1(CO)OC(n2cnc3cncnc32)CC1O (stereo unspecified); > 100 µM (inactive)
CCOc1ccc(C(c2c(O)c3ccccc3oc2=O)c2c(O)c3ccccc3oc2=O)cc1; 67.8 µM (inactive)
[N-]=[N+]=Nc1nc2ccccc2c(N=[N+]=[N-])c1Cl; 28.6 µM (inactive)
O=c1oc2ccc([N+](=O)[O-])cc2cc1-c1csc(-c2ccccc2)n1; > 100 µM (inactive)

I'm hoping you can list GI50 for every compound here, please.
1. C/C=C/[C@H]1O[C@@](OC)([C@@H](C)[C@H](O)[C@H](C)[C@H]2OC(=O)/C(OC)=C/C(C)=C/[C@@H](C)[C@@H](O)[C@@H](C)[C@@H](O)[C@H](C)C/C(C)=C/C=C/[C@@H]2OC)CC(OC2CC(O)C(OC(N)=O)C(C)O2)[C@@H]1C (stereo partly specified)
2. CCOC(=O)Nn1c(CC#N)nnc1Cc1ccccc1
3. C[N+](C)([O-])CCC=C1c2ccccc2CCc2ccccc21

Result:
["< 0.01 µM (active)", "> 100 µM (inactive)", "41.9 µM (inactive)"]

Please give GI50 for each item listed below.
1. CC1(C)OCC=CCO1
2. CC(=O)Oc1c2oc3cc(O)c(O)cc3c2c(OC(C)=O)c2oc3cc(O)c(O)cc3c12
3. Clc1ccc(Cc2nc3cc(Cl)c(Cl)cc3n2CC2CCCN3CCCCC23)cc1Cl (stereo unspecified)

Result:
1: > 100 µM (inactive); 2: 17.1 µM (inactive); 3: 8.43 µM (inactive)

All values here come from ChEMBL document CHEMBL1201862.
